system: L02; assay: Cytotoxicity against human L02 cells assessed as increase in LDH leakage by LDH assay; assay type: cell-based
QUANTITY NAME: Activity

C[C@@H]1O[C@@H](O[C@H]2[C@H](O[C@H]3CC[C@@]4(C)[C@@H](CC[C@]5(C)[C@@H]4CC=C4[C@@H]6CC(C)(C)CC[C@]6(C(=O)O)CC[C@]45C)[C@]3(C)CO)OC[C@H](O[C@@H]3O[C@H](CO)[C@@H](O)[C@H](O)[C@H]3O)[C@@H]2O)[C@H](O)[C@H](O)[C@H]1O [HEDERACOLCHISIDE A] = Toxic
C[C@@H]1O[C@@H](O[C@H]2[C@H](O[C@H]3CC[C@@]4(C)[C@@H](CC[C@]5(C)[C@@H]4CC=C4[C@@H]6CC(C)(C)CC[C@]6(C(=O)O)CC[C@]45C)[C@]3(C)CO)OC[C@H](O)[C@@H]2O)[C@H](O)[C@H](O)[C@H]1O [ALPHA-HEDERIN] = Toxic
C[C@H]1O[C@@H](O[C@@H]2[C@@H](O)[C@@H](CO)O[C@H](O[C@@H]3[C@H](O)[C@@H](O)[C@H](O[C@H]4CC[C@]5(C)[C@H]6CC=C7[C@@H]8CC(C)(C)CC[C@]8(C(=O)O)CC[C@@]7(C)[C@]6(C)CC[C@H]5C4(C)C)O[C@@H]3CO)[C@@H]2O)[C@H](O[C@@H]2OC[C@@H](O)[C@@H](O)[C@@H]2O)[C@@H](O)[C@@H]1O = Toxic

###

test: Oil-water partition coefficient, logP of compound; type: physicochemical
Measured logP, listed per entry for reference.
// return a plain number; no unit text

Worked cases, answers included:
C[C@@H]1O[C@@H](O[C@H]2[C@H](O[C@H]3CC[C@@]4(C)[C@@H](CC[C@]5(C)[C@@H]4CC=C4[C@@H]6CC(C)(C)CC[C@]6(C(=O)O)CC[C@]45C)[C@]3(C)CO)OC[C@H](O[C@@H]3O[C@H](CO)[C@@H](O)[C@H](O)[C@H]3O)[C@@H]2O)[C@H](O)[C@H](O)[C@H]1O [HEDERACOLCHISIDE A] = 0.115
C[C@@H]1O[C@@H](O[C@H]2[C@H](O[C@H]3CC[C@]4(C)[C@H]5CC=C6[C@@H]7CC(C)(C)CC[C@]7(C(=O)O)CC[C@@]6(C)[C@]5(C)CC[C@H]4C3(C)C)OC[C@H](O)[C@@H]2O[C@@H]2O[C@H](CO)[C@@H](O)[C@H](O)[C@H]2O)[C@H](O)[C@H](O)[C@H]1O = 0.318

Now for the compound whose logP we want.
Ask | Name the recorded logP of the compound listed here: C[C@H]1O[C@@H](O[C@@H]2[C@@H](O)[C@@H](CO)O[C@H](O[C@@H]3[C@H](O)[C@@H](O)[C@H](O[C@H]4CC[C@]5(C)[C@H]6CC=C7[C@@H]8CC(C)(C)CC[C@]8(C(=O)O)CC[C@@]7(C)[C@]6(C)CC[C@H]5C4(C)C)O[C@@H]3CO)[C@@H]2O)[C@H](O[C@@H]2OC[C@@H](O)[C@@H](O)[C@@H]2O)[C@@H](O)[C@@H]1O
Reply | -0.0114
